These entries and their values trace back to paper PMC12409425.

# measurement_target: T1, ICP8Δ60 (HSV-1 ICP8 lacking the 60-aa C-terminal tail) (herpes simplex virus type 1 (HSV-1), …, UniProt P17470 1-1136, in the MST only: labelled on amines with the red dye NT-647-NHS (RED-NHS Monolith kit); unlabelled in the thermal shift assays)
# T1 construct: the tail is printed as residues 1136-1196; source: Sf9 insect cells infected with recombinant baculovirus (pFastBac1-ICP8Δ60), purified (SP-Sepharose cation exchange)
# T1 sequence: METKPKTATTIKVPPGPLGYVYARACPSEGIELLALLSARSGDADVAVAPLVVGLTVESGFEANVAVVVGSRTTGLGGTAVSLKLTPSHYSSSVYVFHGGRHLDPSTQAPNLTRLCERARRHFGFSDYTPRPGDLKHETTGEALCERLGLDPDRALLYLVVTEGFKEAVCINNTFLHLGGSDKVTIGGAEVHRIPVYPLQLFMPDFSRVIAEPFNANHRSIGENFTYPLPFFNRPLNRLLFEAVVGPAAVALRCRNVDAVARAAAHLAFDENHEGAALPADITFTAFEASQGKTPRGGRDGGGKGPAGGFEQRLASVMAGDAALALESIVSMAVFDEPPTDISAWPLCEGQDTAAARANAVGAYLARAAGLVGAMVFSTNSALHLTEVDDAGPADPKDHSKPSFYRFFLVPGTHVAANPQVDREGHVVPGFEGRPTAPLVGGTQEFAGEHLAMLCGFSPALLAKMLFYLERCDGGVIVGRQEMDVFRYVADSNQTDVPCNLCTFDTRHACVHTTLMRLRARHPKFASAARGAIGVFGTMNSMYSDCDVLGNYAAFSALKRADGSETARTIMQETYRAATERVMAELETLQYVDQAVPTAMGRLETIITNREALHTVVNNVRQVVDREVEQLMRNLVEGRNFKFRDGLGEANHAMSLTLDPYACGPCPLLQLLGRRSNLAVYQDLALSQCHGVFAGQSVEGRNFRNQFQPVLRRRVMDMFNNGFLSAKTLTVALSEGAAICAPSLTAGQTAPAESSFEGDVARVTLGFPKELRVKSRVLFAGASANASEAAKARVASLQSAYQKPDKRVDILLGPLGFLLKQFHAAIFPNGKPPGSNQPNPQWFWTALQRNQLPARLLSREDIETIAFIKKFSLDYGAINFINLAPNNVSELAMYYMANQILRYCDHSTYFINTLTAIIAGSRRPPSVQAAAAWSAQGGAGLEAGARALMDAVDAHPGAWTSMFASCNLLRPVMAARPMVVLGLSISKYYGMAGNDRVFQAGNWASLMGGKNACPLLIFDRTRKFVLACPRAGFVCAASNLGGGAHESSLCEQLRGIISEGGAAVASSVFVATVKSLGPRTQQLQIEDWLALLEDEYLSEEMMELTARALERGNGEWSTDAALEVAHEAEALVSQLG
# protocol_description: label-free thermal shift (nanoDSF, Tycho NT.6); 5 μM ICP8Δ60 with a molar excess of CTD fragment (1:10 M ratio), no ssDNA; shift of the inflection temperature Ti of ICP8Δ60; 20 mM Na phosphate pH 7.6, 100 mM NaCl, 100 μM EDTA, 1 mM TCEP, 10% glycerol, 5 mM MgCl2; heated at 30 °C/min
# cond: both partners purified
property_label: ΔTi of ICP8Δ60 (Ti complex - Ti apo), - ssDNA (°C)
The figure you give is taken to be in °C; do not add the unit.

As a guide, the following entries are already answered.
binder	observed_result
ICP8-CTD WT (His-tagged entire C-terminal domain of ICP8, residues 1036-1196) (domain or fragment, ICP8 (UL29) of HSV-1, entire C-terminal domain with the helical bundle and the intact 60-aa disordered tail, residues 1036-1196; The methods give no limits for the pET28a construct and give aa 1049-1135 for the Flag-tagged CTD of the cell experiments; also called WT ICP8-CTD; WT CTD; source: E. coli BL21 (pET28a-His-ICP8-CTD, codon optimised), purified (Talon cobalt beads, Superose 12 gel …)) AASNLGGGAHESSLCEQLRGIISEGGAAVASSVFVATVKSLGPRTQQLQIEDWLALLEDEYLSEEMMELTARALERGNGEWSTDAALEVAHEAEALVSQLGNAGEVFNFGDFGCEDDNATPFGGPGAPGPAFAGRKRAFHGDDPFGEGPPDKKGDLTLDML	2.1
ICP8-CTD FNF→AAA (domain or fragment, ICP8 (UL29) of HSV-1, C-terminal domain, residues 1036-1196, with the triple alanine substitution of F1142, N1143 and F1144; the text has 1142-1144; also called FNF→AAA CTD; source: E. coli BL21 (pET28a-His-ICP8-CTD mutant), purified (Talon cobalt beads, Superose 12 gel filtration)) AASNLGGGAHESSLCEQLRGIISEGGAAVASSVFVATVKSLGPRTQQLQIEDWLALLEDEYLSEEMMELTARALERGNGEWSTDAALEVAHEAEALVSQLGNAGEVAAAGDFGCEDDNATPFGGPGAPGPAFAGRKRAFHGDDPFGEGPPDKKGDLTLDML	0.6
ICP8-CTD Δ60 (domain or fragment, ICP8 (UL29) of HSV-1, C-terminal domain (begins at 1036) with the last 60 residues deleted; source: E. coli BL21 (pET28a-His-ICP8-CTDΔ60), purified (Talon cobalt beads, Superose 12 gel filtration)) AASNLGGGAHESSLCEQLRGIISEGGAAVASSVFVATVKSLGPRTQQLQIEDWLALLEDEYLSEEMMELTARALERGNGEWSTDAALEVAHEAEALVSQLG	0.7

Prompt: Kindly indicate its recorded ΔTi of ICP8Δ60 (Ti complex - Ti apo), - ssDNA. Item: ICP8-CTD D1087A (domain or fragment, ICP8 (UL29) of HSV-1, C-terminal domain, residues 1036-1196, with D1087A; source: E. coli BL21 (pET28a-His-ICP8-CTD mutant), purified (Talon cobalt beads, Superose 12 gel filtration)) AASNLGGGAHESSLCEQLRGIISEGGAAVASSVFVATVKSLGPRTQQLQIEAWLALLEDEYLSEEMMELTARALERGNGEWSTDAALEVAHEAEALVSQLGNAGEVFNFGDFGCEDDNATPFGGPGAPGPAFAGRKRAFHGDDPFGEGPPDKKGDLTLDML
Response: 1
